Measured GI50, listed per entry.
# Tested on: IGROV-1
# experiment_description: NCI tumour cell line growth inhibition, 48 h
Activity calls are given as the source filed them. Rule as the data show it: active = GI50 up to about 1.1 µM and inactive = higher.

- molecule: "COC(=O)C1=C(C(=O)OC)C2=S(SC3=C2CCCC3)S1 (configuration not stated)"
  reported_metric: "GI50"
  test_result: "85.7 µM (inactive)"

Look up GI50 of COC1(OC)c2ccccc2C2(O)c3ccccc3C(=O)C12 (configuration not stated) and report it.
18.2 µM (inactive)

Using the record for COC(=O)/C=C1/SC(/C(=C(/[O-])OC)[n+]2ccc3ccccc3c2)=NC1=O , state its measured GI50.
> 100 µM (inactive)

Find the measured GI50 of O=P1(NCCCl)OCCCN1CCCl (configuration not stated) [IFOSFAMIDE] and report it.
433 µM (inactive)

Assign GI50 to the following record: CC(=O)N(C)c1ccc2c(ccc[n+]2[O-])c1[N+](=O)[O-]
> 100 µM (inactive)

Output GI50 of NC1=NNC2(C(N)=N1)c1ccccc1-c1ccccc12
> 10 µM (inactive)

Annotate the molecule CC(=O)OC(Cn1cncn1)(Cn1cncn1)c1ccc(Cl)cc1Cl with its measured GI50.
> 100 µM (inactive)

Determine its reported GI50: CN/C(=N\c1ccc(OC)c2ccccc12)SC
> 10 µM (inactive)

Quote GI50 reported for CN(C)Cc1nsc(N(C)C)n1 please.
> 100 µM (inactive)

Give reported GI50 value for CC(=O)N(CN1C(=O)CCC1C(=O)O)c1ccccc1 (configuration not stated)
> 50.4 µM (inactive)

// fetch GI50 given entry COc1ccc2c(c1)SC1=Nc3sc4cc(OC)ccc4[n+]3CN12
24.9 µM (inactive)

Give the reported GI50 for this molecule. CCC1CCCCN1CC(C(C)=O)C(c1ccccc1)c1c(O)c2ccccc2oc1=O (configuration not stated)
> 100 µM (inactive)
